- Assay Method Text: reduced mouse 2C T cell binding to pMHC/ICAM-1 vesicles – MLPCN validation set, flow cytometry, LFA-1/ICAM-1 modulator project, pilot screen (AID 2523)
- Cond: 2C mouse CD8+ T cells, at 7 µM, stronger effect = lower value; measured here: CD8+/vesicle+ event percentage
# double positive events annotations
Remember to follow the number with its unit.

Here is how some compounds turned out for double positive events.
{"Compound": "CC(=O)C1=C(O)C(=O)OC1c1ccc(C)cc1 (stereo not given)", "Reading": "61%"}
{"Compound": "OCCC1CN(Cc2nc(-c3ccccc3)cs2)CCN1Cc1ccc(F)cc1 (stereo not given)", "Reading": "68.6%"}
{"Compound": "CCOc1ccc2oc(-c3ccccc3)c(C(=O)O)c2c1", "Reading": "65.1%"}
{"Compound": "CC(=O)CCCCn1c(=O)c2c(ncn2C)n(C)c1=O", "Reading": "57.8%"}

Quick one: give measured double positive events for `N/C(=N\OC(=O)c1ccc(Br)o1)c1ccccn1`
67.8%

---

- Assay Method Text: reduced mouse 2C T cell binding to pMHC/ICAM-1 vesicles – MLPCN validation set, flow cytometry, LFA-1/ICAM-1 modulator project, pilot screen (AID 2523)
- Cond: 2C mouse CD8+ T cells, at 7 µM, stronger effect = lower value; measured here: CD8+/vesicle+ event percentage
Reported Metric: double positive events

{"Compound": "O=C1CC(c2ccc(O)cc2)Oc2cc(O)cc(O)c21 (stereo not given)", "double positive events": "61.7%"}
{"Compound": "Cc1ccc(S(=O)(=O)N2CCC(C(=O)N[C@@H](C)C(=O)NC3CCS(=O)(=O)C3)CC2)cc1 (stereo not given in full)", "double positive events": "57.7%"}
{"Compound": "Cc1nonc1CN(C)C(=O)c1ccc(OC2CCN(Cc3ccccn3)CC2)cc1", "double positive events": "61.2%"}
{"Compound": "NC(N)=NC(N)=NCCc1ccccc1", "double positive events": "59.4%"}
{"Compound": "CC1CC(OC(=O)C(O)c2ccccc2)CC(C)(C)N1C (stereo not given)", "double positive events": "57.9%"}

Quick one: give measured double positive events for `CN(C)CC/C=C1\c2ccccc2Sc2ccc(Cl)cc21`
64.5%

Quick one: give measured double positive events for `CN(C)CC/C=C1\c2ccccc2COc2ccccc21`
68.1%

Quick one: give measured double positive events for COc1ccc(C2c3c(n[nH]c3C)CC(C)(O)C2C(C)=O)cc1OC (stereo not given)
67.8%

Quick one: give measured double positive events for `Cc1cccc(NC(=O)c2cc3ccccc3o2)c1`
69.2%

Quick one: give measured double positive events for `CCCCOC(=O)c1ccc(N)cc1`
59.9%

Quick one: give measured double positive events for `COc1cc(CNCc2ccc(OC)c(OC)c2OC)cc(OC)c1`
60.7%

Quick one: give measured double positive events for `COC(=O)[C@H]1[C@H]2C[C@@H]3c4[nH]c5cc(OC)ccc5c4CCN3C[C@H]2C[C@@H](OC(=O)c2ccc(N)cc2)[C@@H]1OC`
64.5%

Quick one: give measured double positive events for `COc1cc(C(=S)N(C)C)ccc1O`
62.6%

Quick one: give measured double positive events for `S=C(NCCOCCOCCNC(=S)Nc1ccccc1)Nc1ccccc1`
64.8%

Quick one: give measured double positive events for O=C(CC1SC(=O)NC1=O)Nc1ccc(Cl)cc1 (stereo not given)
65.3%

Quick one: give measured double positive events for `CC(C)(C)c1ccc(/C=C/C(=O)N2CCCCC2)cc1`
59.2%

Quick one: give measured double positive events for CCOC(=O)c1cc2c(nc1N)CC(C)(CC)OC2 (stereo not given)
61.3%

Quick one: give measured double positive events for `COc1cc2c(cc1OC)CN(C(=O)c1ccc(S(=O)(=O)N(C)c3ccccc3)cc1)CC2`
73.5%

Quick one: give measured double positive events for `CCOc1ccc2ccccc2c1CNc1nnnn1C`
65.8%

Quick one: give measured double positive events for `O=C1CC[C@@H](CN(Cc2ccccc2)Cc2cn[nH]c2-c2cc3ccccc3o2)N1`
63.1%

Quick one: give measured double positive events for `O=c1[nH]cc(F)c(=O)[nH]1`
52.4%

Quick one: give measured double positive events for CCOc1ccc(CC2CCC(=O)NC2=O)cc1 (stereo not given)
64%

Quick one: give measured double positive events for COc1cc2c(cc1OC)C1(CCCC1)CNC2c1cccc([N+](=O)[O-])c1 (stereo not given)
54.7%

Quick one: give measured double positive events for CC1CCCC(C)N1NC(=O)c1ccc(Cl)c(S(N)(=O)=O)c1 (stereo not given)
65.1%

Quick one: give measured double positive events for `Cc1oc2c(O)c(O)ccc2c(=O)c1-c1ccccc1`
59.4%

Quick one: give measured double positive events for `O=C(/C=C/c1ccc(F)cc1)N1CC[C@@]2(O)CCCC[C@H]2C1`
61.1%

---

- Assay Method Text: reduced mouse 2C T cell binding to pMHC/ICAM-1 vesicles – MLPCN validation set, flow cytometry, LFA-1/ICAM-1 modulator project, pilot screen (AID 2523)
- Cond: 2C mouse CD8+ T cells, at 7 µM, stronger effect = lower value; measured here: CD8+/vesicle+ event percentage
Sorting guide: entries reporting double positive events beneath 60% go in the Yes pile, the rest go in the No pile.

Quick check: double positive events of CC(=O)NC1C(OCc2ccccc2)OC(COC(C)=O)C(OC(C)=O)C1OC(C)=O (stereo not drawn) under 60%?
No

---

# superoxide response (% of plate) annotations
- Assay Method Text: calorie-restriction mimetic ROS inhibitors, yeast – validation compound set, pilot screen (AID 2706);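 note: yeast exposed to compound for one week at 30 degrees C before staining; 100% = mean of all compound wells on the same plate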
- Cond: S. cerevisiae aging, superoxide DHE fluorescence; at 10 µM; stronger effect = lower value
Express your answer in %, writing the number without its unit.

{"Molecule": "COC(=O)c1[nH]c2ccc(C)cc2c1NC(=O)CN1CCc2cc(OC)c(OC)cc2C1", "Reading": 130}
{"Molecule": "O=C1OC(Nc2ccc3c(c2)OCO3)c2ccccc21 (centres undefined)", "Reading": 99.6}
{"Molecule": "C[N+](C)(C)CCCC(=O)c1ccc2c(c1)OCO2", "Reading": 104}
{"Molecule": "CCOc1ccc(C(=O)C(C)=O)c(OCC)c1", "Reading": 105}
{"Molecule": "O=c1ccc2c(o1)/C(=C/C=C(Cl)Cl)CCC2", "Reading": 101}

Quick one: give measured superoxide response (% of plate) for `c1ccc(Cn2nnc3cnccc32)cc1`
113

Quick one: give measured superoxide response (% of plate) for `CC(C)(S)[C@@H](N)C(=O)O`
85

Quick one: give measured superoxide response (% of plate) for COC(=O)c1ccc(NC(=O)C23CCC(C)(C(=O)O2)C3(C)C)cc1 (centres undefined)
99.7

Quick one: give measured superoxide response (% of plate) for `CC/C(=C(\c1ccc(O)cc1)c1ccc(OCCN(C)C)cc1)c1ccccc1`
97.5

Quick one: give measured superoxide response (% of plate) for `COc1cc2c(cc1OC)/C(=C/c1ccc(Cl)cc1)C(=O)OC2`
95.8

Quick one: give measured superoxide response (% of plate) for `Cc1c(NC(=O)c2cccs2)cccc1[N+](=O)[O-]`
95.5

Quick one: give measured superoxide response (% of plate) for CC(C)=CC/C=C1\CCC(C(=O)O)C(C(=O)O)C1 (centres undefined)
91.6

Quick one: give measured superoxide response (% of plate) for `COc1ccc(-c2coc3c(CN4CCOCC4)c(O)ccc3c2=O)cc1`
103

Quick one: give measured superoxide response (% of plate) for Fc1ccccc1CNCCC(Cc1ccccc1)c1ccc2c(c1)OCO2 (centres undefined)
104

Quick one: give measured superoxide response (% of plate) for `O=C1[C@@H]2[C@H](Cc3ccc(O)cc3)N[C@]3(C(=O)Nc4ccccc43)[C@@H]2C(=O)N1c1ccc(F)cc1`
90

Quick one: give measured superoxide response (% of plate) for CC(N=C(NC#N)Nc1ccncc1)C(C)(C)C (centres undefined)
104

Quick one: give measured superoxide response (% of plate) for COCCOC(=O)C1=C(N)OC2=C(C(=O)CCC2)C1c1cccnc1 (centres undefined)
99.2

Quick one: give measured superoxide response (% of plate) for `COc1ccc(C=O)c(OC)c1`
93.3

Quick one: give measured superoxide response (% of plate) for `O=C(Nc1ccccc1C(=O)N1CCCCCC1)c1ccccc1Cl`
115

Quick one: give measured superoxide response (% of plate) for `NNC(=O)c1cc(O)c(O)c(O)c1`
93.7

---

# RGS19–Galpha-o binding response annotations
- Study System: Regulator of G-protein signaling 19 (Homo sapiens) (UniProt P49795)
- Assay Method Text: small molecules altering RGS protein interactions with GNAO1 – biochemical, multiplexed beads, flow cytometry, RGS4/7/8/16/19, primary screen (AID 1504);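 note: fluorescently labeled Galpha-o bound to GDP with aluminium fluoride binding biotinylated RGS beads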
- Cond: multiplexed bead flow cytometry, measured here: RGS19 interaction, at 10 µM
The other results are listed elsewhere or left out.
Express your answer in %, writing the number without its unit.

{"Molecule": "O=C(Nc1ccc(-n2ccnc2P(=O)(O)c2ccccc2)cc1)c1ccccc1Br", "Study System": "Regulator of G-protein signaling 19 (Homo sapiens) (UniProt P49795)", "Reading": 394}
{"Molecule": "CCn1c(CSCc2c(Cl)cccc2Cl)n[nH]c1=S", "Study System": "Regulator of G-protein signaling 19 (Homo sapiens) (UniProt P49795)", "Reading": 1140}
{"Molecule": "CCOc1ccccc1NC(=O)c1cc(S(=O)(=O)N2CCC3(CC2)OCCO3)ccc1F", "Study System": "Regulator of G-protein signaling 19 (Homo sapiens) (UniProt P49795)", "Reading": 139}
{"Molecule": "COc1ccc(C(=O)NNc2cc(C)nc(NNC(=O)c3ccc(OC)cc3)n2)cc1", "Study System": "Regulator of G-protein signaling 19 (Homo sapiens) (UniProt P49795)", "Reading": 167}
{"Molecule": "CC(NC(=O)COC(=O)C1CCN(S(=O)(=O)c2ccccc2C(F)(F)F)CC1)c1ccccc1 (stereo not given)", "Study System": "Regulator of G-protein signaling 19 (Homo sapiens) (UniProt P49795)", "Reading": -23.1}

Quick one: give measured RGS19–Galpha-o binding response for `CCOC(=O)c1oc2c(CN3CCN(C)CC3)c(O)ccc2c(=O)c1-c1ccc(Br)cc1`
79.7

Quick one: give measured RGS19–Galpha-o binding response for CCCC1C(c2ccccc2)C(C#N)(C#N)C2(C#N)CC1(N)NC2=O (stereo not given)
474

Quick one: give measured RGS19–Galpha-o binding response for `CCN(CC)S(=O)(=O)c1cccc(-c2n[nH]c(=S)n2/N=C/c2ccc(C(=O)OC)cc2)c1`
35.5

Source of measurements: PubChem BioAssay
